Test: Pharmacokinetic evaluation in rats
Type: in vivo, SD rats
Conditions: male, SD, rat, plasma, 10 mg/kg, oral administration, 10 mpk, read-out: Bioavailability F (%)
Text: Animals: 6 SPF-grade male SD rats were purchased from Beijing Vital River Laboratory Animal Technology Co., Ltd. Grouping: rats were divided into 2 groups, with 3 rats in each group; one group was an oral administration group, and the other group was an intravenous injection group. The dose in the oral administration group was 10 mpk, and the dose in the intravenous injection group was 2 mpk. […]
Value Kind: bioavailability (%)
One number for each entry, in %.

I would be grateful if you could share the reported bioavailability for "Cc1cc(CN2C(=O)CN(c3ccc(C(F)(F)F)cc3)C2=O)cc(C)c1OC(C)(C)C(=O)O" . 105
